- assay-context: buffer; pH 7.4; 200.0 µM
Label Fulfilled when solubility kinetic >= 10 µg/mL; otherwise Not fulfilled.

Answered examples (10):
{"columns": ["compound", "group"],
 "data": [
  ["Cc1c(C(=O)NC2CCCc3ccccc32)cccc1[N+](=O)[O-] (centres undefined)", "Not fulfilled"],
  ["COc1ccc(OCC(O)CNS(=O)(=O)c2ccc(C)cc2)cc1 (centres undefined)", "Fulfilled"],
  ["COc1ccc(C2c3ccsc3CCN2C(=O)C(C)(C)C)cc1 (centres undefined)", "Fulfilled"],
  ["Cc1ccc(NC(=O)CCn2cc(C(F)(F)F)ccc2=O)cc1", "Fulfilled"],
  ["NC(=O)c1cc(S(=O)(=O)Nc2ccccc2)cs1", "Fulfilled"],
  ["CC(C)N1CC(C(=O)Nc2cc(Cl)cc(Cl)c2)CC1=O (centres undefined)", "Fulfilled"],
  ["CN1c2ccsc2C(=O)/C(=C\\Nc2cccc(C(F)(F)F)c2)S1(=O)=O", "Not fulfilled"],
  ["CCOc1ccc(C(=O)NCc2ccc3c(c2)OCO3)cc1", "Fulfilled"],
  ["COc1cccc(Nc2ccc([N+](=O)[O-])c3nonc23)c1", "Not fulfilled"],
  ["Nc1c(Br)c(=O)[nH]c(=O)n1-c1ccc(F)cc1", "Fulfilled"]
]}

Please find the next compound below.
Task item: Does the reported solubility kinetic for CS(=O)(=O)Nc1ccccc1C(=O)OCC(=O)NC1CC1 fall at or above the 10 µg/mL mark?
Reply: Fulfilled

====

- assay-context: buffer; pH 7.4; 200.0 µM
readout: solubility kinetic

The cases that follow already have their solubility kinetic on record.
{"columns": ["compound", "solubility kinetic"],
 "data": [
  ["O=C(O)c1nc(NCCc2ccccc2)ncc1Cl", "> 41.7 µg/mL"],
  ["CCN(CC)C(=S)Nc1c(C)n(C)n(-c2ccccc2)c1=O", "> 47.8 µg/mL"],
  ["[Br-].c1ccc(Cc2cc[n+](Cc3ccccn3)cc2)cc1", "> 51.2 µg/mL"],
  ["COc1ccc(NC(=O)CCC(=O)N2CCOCC2)c([N+](=O)[O-])c1", "> 50.6 µg/mL"]
]}

Task item: Write down solubility kinetic measured for item COc1ccc(CN2CCNCC2)cc1.Cl
Reply: > 36.4 µg/mL

Task item: Input CN1CCN(C(=O)/C=C/c2c(F)cccc2Cl)CC1 , output reported solubility kinetic.
Reply: > 42.4 µg/mL

Task item: Indicate its recorded solubility kinetic; the compound in question is O=C(NCC1CCCO1)c1cnn2c(C(F)F)cc(C3CC3)nc12 (stereo unspecified)
Reply: > 50.5 µg/mL

Task item: Using the record for O=C(CN1C(=O)NC2(CCCCCC2)C1=O)c1ccccc1 , state its measured solubility kinetic.
Reply: > 45.1 µg/mL

Task item: Specify reported solubility kinetic for the compound shown: COc1ccccc1NC(=O)NCCc1ccccc1
Reply: > 40.5 µg/mL

Task item: Answer with reported solubility kinetic of OC1(c2ccccc2)Cc2cccc[n+]2C1c1ccccc1.[Br-] (stereo unspecified)
Reply: > 55.2 µg/mL

Task item: Determine from records and report solubility kinetic for O=C(O)c1cc(S(=O)(=O)N2CCOCC2)c[nH]1
Reply: > 39 µg/mL

====

- assay-context: buffer; pH 7.4; 200.0 µM
Recorded measurements of solubility kinetic, one per entry

{"columns": ["compound", "result"],
 "data": [
  ["CSc1ccc(C(=O)C2CCCN(C)C2)cc1 (stereo unspecified)", "> 37.4 µg/mL"]
]}

Task item: Give the measured solubility kinetic for Cc1ccc(N(C(C)C(=O)N2CCCC2)S(C)(=O)=O)cc1 (stereo unspecified)
Reply: > 46.6 µg/mL

Task item: Given the compound O=S(=O)(Nc1cc(S(=O)(=O)N2CCOCC2)ccc1Cl)c1ccccc1 , write its reported solubility kinetic.
Reply: > 62.5 µg/mL

====

- assay-context: buffer; pH 7.4; 200.0 µM
readout: solubility kinetic

{"columns": ["molecule", "solubility kinetic"],
 "data": [
  ["COc1ccccc1C(O)c1nccn1C (centres undefined)", "> 32.7 µg/mL"]
]}

Task item: Could you please provide reported solubility kinetic for CCC(=O)Nc1cc(OC)cc(OC)c1 ? Thanks!
Reply: > 31.4 µg/mL

Task item: Give the reported solubility kinetic for this molecule. Cc1cccc(NC(=O)N2CCC(NC(=O)c3ccco3)CC2)c1
Reply: > 49.1 µg/mL

Task item: Return value of solubility kinetic for input CN(Cc1ccccc1)C(=O)COC(=O)CN1C(=O)c2ccccc2C1=O , no commentary.
Reply: > 55 µg/mL

Task item: Please give measured solubility kinetic of the following entry: COC(=O)c1sccc1NC(=O)Nc1cccc(OC)c1
Reply: > 46 µg/mL

Task item: Please supply the value of reported solubility kinetic for the item Nc1cc(Nc2ccccc2)ccn1.O=P(O)(O)O
Reply: > 42.5 µg/mL

Task item: Indicate its recorded solubility kinetic; the molecule in question is Cn1c(SCC2CCCO2)nnc1-c1cccc([N+](=O)[O-])c1 (centres undefined)
Reply: > 48.1 µg/mL

Task item: State, in one line, measured solubility kinetic of Cn1ncc(Br)c1C(=O)N1CCCC1
Reply: > 38.7 µg/mL

Task item: Please indicate solubility kinetic recorded for Cc1c(O)ccc(C(=O)CN2CC(C)OC(C)C2)c1O (centres undefined)
Reply: > 41.9 µg/mL

Task item: Output solubility kinetic of Cc1ccc(N/C=C/C(=O)c2ccccc2)cc1Br
Reply: < 0.7 µg/mL

Task item: Look up and state reported solubility kinetic for COc1ccc(S(=O)(=O)N2CCN(C)CC2)c(C)c1
Reply: > 42.7 µg/mL

Task item: Name the recorded solubility kinetic of the item COc1ccc(N2CCN(c3cc(C)c4cccc(C)c4n3)CC2)cc1 in your answer.
Reply: < 0.2 µg/mL

Task item: Give me measured solubility kinetic, please, for this molecule: O=C(NCCOc1ccccc1)c1ccccc1Cl
Reply: > 41.4 µg/mL

Task item: For the molecule CC(=O)Nc1ccc(C(=O)OCC(=O)N2CCCC2=O)cc1 , give its measured solubility kinetic value.
Reply: > 45.6 µg/mL

Task item: Please look at this molecule and report its solubility kinetic: O=C(CCC1CCCCC1)Nc1ccc(C(=O)c2ccncc2)cc1
Reply: < 0.4 µg/mL

Task item: Look up and report measured solubility kinetic for this entry: CCOC(=O)N1CCN(c2nc3c(C)cccn3c(=O)c2C=O)CC1
Reply: > 51.7 µg/mL

Task item: Output solubility kinetic of CC1(C)C2CCC1(CS(=O)(=O)NC1CCCC1)C(=O)C2 (centres undefined)
Reply: > 44.9 µg/mL

Task item: Give me measured solubility kinetic, please, for this molecule: COc1ccc(/C=N/NC(=O)c2cccnc2)cc1
Reply: > 38.3 µg/mL

Task item: Provide measured solubility kinetic value, entry: CC1(C)c2cc(O)ccc2OC1N1CCOCC1 (centres undefined)
Reply: > 37.4 µg/mL

Task item: Name the recorded solubility kinetic of the molecule listed here: CNC(=O)COC(=O)/C=C/c1cccs1
Reply: > 33.8 µg/mL

====

- assay-context: buffer; pH 7.4; 200.0 µM
Overview of reported solubility kinetic across a group of compounds:

Use these answered entries as a reference point.
{"columns": ["compound", "solubility kinetic"],
 "data": [
  ["CC(=O)C1=C(C)OC(N)=C(C#N)C1c1cccnc1 (centres undefined)", "> 38.3 µg/mL"],
  ["CN(C)C(=S)NC1CCS(=O)(=O)C1 (centres undefined)", "> 33.3 µg/mL"],
  ["Nc1ccccc1C(=O)NCCCN1CCOCC1", "> 39.5 µg/mL"]
]}

# evaluate next
Task item: Hello, please tell me recorded solubility kinetic for this one: CCCn1c(SCC(=O)N2CC(=O)Nc3ccccc32)n[nH]c1=O
Reply: > 52.1 µg/mL

====

Each entry below carries its recorded solubility kinetic.
- assay-context: buffer; pH 7.4; 200.0 µM

Solved cases (3 shown):
{"columns": ["compound", "solubility kinetic"],
 "data": [
  ["COc1ccccc1-c1nnc(SCC(=O)N2CCCC2)o1", "> 47.9 µg/mL"],
  ["O=c1c2nccnc2[nH]c(=S)n1Cc1ccccc1Cl", "> 45.7 µg/mL"],
  ["O=C(CCNC(=O)c1ccco1)Nc1cccc(C(F)(F)F)c1", "> 48.9 µg/mL"]
]}

Task item: For COc1ccccc1C(=O)NC(=O)COC(=O)C1CC1C (centres undefined) , write its solubility kinetic.
Reply: > 43.7 µg/mL

Task item: Answer with reported solubility kinetic of Cc1ccccc1C(=O)NCC(=O)O
Reply: > 29 µg/mL

Task item: Annotate the compound COc1cc(C(=O)O)cc(NC(=O)c2ccco2)c1OC with its measured solubility kinetic.
Reply: > 43.7 µg/mL

====

- assay-context: buffer; pH 7.4; 200.0 µM
The following compounds are listed with their measured solubility kinetic values.

{"columns": ["compound", "solubility kinetic"],
 "data": [
  ["COc1cc2c(C(=O)O)c(C)n(C)c2cc1Br", "> 44.7 µg/mL"]
]}

Continue with the next compound.
Task item: Report solubility kinetic, nothing else, for this compound: COc1ccc(NC(=O)CSc2nc3ccccc3c(=O)n2C)cc1
Reply: < 0.3 µg/mL
